# tested-system: Cyclin-dependent kinase 2/cyclin A (Homo sapiens)
# assay-notes: Inhibition of recombinant human CDK2/cyclin A after 30 mins by scintillation counting
experimental-readout: IC50 (nM)
Field: numeric (nM). Do not append units.

Some solved cases for reference:
INSERT INTO measurements (smiles_data, numeric_result) VALUES
  ('CC(C)[C@@H](CO)Nc1nc(Nc2cncnc2)c2ncn(C(C)C)c2n1', 110),
  ('CC[C@H](CO)Nc1nc(Nc2ccnnc2)c2ncn(C(C)C)c2n1', 72),
  ('CC(C)n1cnc2c(Nc3cnccn3)nc(Cl)nc21', 3100),
  ('CC(C)n1cnc2c(Nc3cccnc3)nc(Cl)nc21', 680);

Asked: Give reported IC50 value for `CC(C)n1cnc2c(Nc3cncnc3)nc(Nc3cncnc3)nc21`
Given back: 170

Asked: Give reported IC50 value for `CC(C)[C@@H](CO)Nc1nc(Nc2ccnnc2)c2ncn(C(C)C)c2n1`
Given back: 120

----------
# tested-system: Dual specificity tyrosine-phosphorylation-regulated kinase 1A (Homo sapiens, UniProt Q13627)
# assay-notes: Inhibition of recombinant GST-fused human DYRK1A expressed in Escherichia coli using KKISGRLSPIMTEQ as substrate
compounds and their reported IC50

INSERT INTO results (smiles_data, result) VALUES
  ('CC(C)n1cnc2c(Nc3ccncn3)nc(Cl)nc21', '> 10 µM');

Asked: Give reported IC50 value for `CC(C)n1cnc2c(Nc3ncccn3)nc(Cl)nc21`
Given back: > 10 µM

----------
# tested-system: Cyclin-dependent kinase 5/CDK5 activator 1 (Homo sapiens, UniProt Q00535)
# Sequence (Q00535 whole entry): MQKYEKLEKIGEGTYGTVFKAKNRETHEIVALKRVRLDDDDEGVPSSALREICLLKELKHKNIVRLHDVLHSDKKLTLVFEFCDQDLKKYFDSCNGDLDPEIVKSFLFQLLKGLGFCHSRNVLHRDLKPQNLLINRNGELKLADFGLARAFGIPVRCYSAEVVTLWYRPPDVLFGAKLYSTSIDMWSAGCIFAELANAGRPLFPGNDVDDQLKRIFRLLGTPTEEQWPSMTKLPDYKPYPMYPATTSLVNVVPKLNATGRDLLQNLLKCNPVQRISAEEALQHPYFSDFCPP
# Sequence (Q15078 whole entry, further chain): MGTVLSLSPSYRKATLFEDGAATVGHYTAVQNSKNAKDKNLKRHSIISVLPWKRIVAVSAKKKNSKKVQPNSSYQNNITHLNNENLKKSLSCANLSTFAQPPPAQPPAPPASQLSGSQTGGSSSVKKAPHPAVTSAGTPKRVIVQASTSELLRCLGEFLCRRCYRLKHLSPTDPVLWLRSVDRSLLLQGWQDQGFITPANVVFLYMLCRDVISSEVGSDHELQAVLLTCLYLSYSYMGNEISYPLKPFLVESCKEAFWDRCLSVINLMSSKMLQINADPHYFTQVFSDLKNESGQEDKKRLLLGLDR
# assay-notes: Inhibition of recombinant human CDK5/p25 after 30 mins by scintillation counting
pIC50: −log10 of the molar value.
Classification field: t = pIC50 at or over 6; f = pIC50 under 6.

INSERT INTO results (smiles_data, tested_system, category_label) VALUES
  ('CC(C)n1cnc2c(Nc3ncccn3)nc(Cl)nc21', 'Cyclin-dependent kinase 5/CDK5 activator 1 (Homo sapiens, UniProt Q00535)', 'f'),
  ('CC(C)n1cnc2c(Nc3cncnc3)nc(Nc3cncnc3)nc21', 'Cyclin-dependent kinase 5/CDK5 activator 1 (Homo sapiens, UniProt Q00535)', 't'),
  ('CC[C@@H](CO)Nc1nc(Nc2cccnc2)c2ncn(C(C)C)c2n1', 'Cyclin-dependent kinase 5/CDK5 activator 1 (Homo sapiens, UniProt Q00535)', 't'),
  ('CC[C@H](CO)Nc1nc(Nc2ccccn2)c2ncn(C(C)C)c2n1', 'Cyclin-dependent kinase 5/CDK5 activator 1 (Homo sapiens, UniProt Q00535)', 'f');

Now, please, on to the next molecule.
Asked: Is pIC50 for `CC(C)[C@@H](CO)Nc1nc(Nc2ccncc2)c2ncn(C(C)C)c2n1` at or above 6?
Given back: t

----------
# tested-system: Cyclin-dependent kinase 2/cyclin A (Homo sapiens, UniProt P24941)
# assay-notes: Inhibition of recombinant human CDK2/cyclin A after 30 mins by scintillation counting
Lab note - cut at 500 nM for IC50: label 1 if strictly below, label 0 if not.

These recorded examples may help you get a feel for the data.
INSERT INTO measurements (smiles_data, category_label) VALUES
  ('CC[C@@H](CO)Nc1nc(Nc2ccccn2)c2ncn(C(C)C)c2n1', 'label 0'),
  ('CC(C)[C@@H](CO)Nc1nc(Nc2ccncc2)c2ncn(C(C)C)c2n1', 'label 1'),
  ('CC[C@@H](CO)Nc1nc(Nc2ncccn2)c2ncn(C(C)C)c2n1', 'label 0'),
  ('CC(C)[C@H](CO)Nc1nc(Nc2ccncc2)c2ncn(C(C)C)c2n1', 'label 1'),
  ('CC[C@H](CO)Nc1nc(Nc2ccncn2)c2ncn(C(C)C)c2n1', 'label 0');

Now, please, on to the next molecule.
Asked: Decide: IC50 of `CC(C)n1cnc2c(Nc3ccncn3)nc(Cl)nc21` strictly below 500 nM?
Given back: label 0
